// provenance: ChEMBL document CHEMBL4428106

PROCEDURE TEXT: Inhibition of baker's yeast alpha-glucosidase using p-nitrophenyl-alpha D-glucopyranoside as substrate preincubated for 15 mins followed by substrate addition measured after 30 mins by spectrophotometric analysis
Parameters: species or system Saccharomyces cerevisiae
pIC50: −log10 of the molar value.
MEASURED METRIC: pIC50

Below are worked cases with known answers.
- SUBSTANCE SMILES: "Cc1cccc(Nc2nc3ccccc3o2)c1"
  ASSAY RESULT: "< 3.70"
- SUBSTANCE SMILES: "Cc1ccc(Nc2nc3ccccc3o2)cc1"
  ASSAY RESULT: "< 3.70"

Next up:
*Q* May I ask what pIC50 has been recorded for Cc1ccccc1Nc1nc2ccccc2o1 ?
*A* < 3.70
